MEASURED_TARGET: interaction between GMPPNP-bound recombinant K-Ras4B G12C mutant protein and cRAF RAS-binding domain (cRAF-RBD) (Homo sapiens, UniProt P01116, G12C)
Construct: His-tag (N)
Sequence (P01116 with tags, fused parts or gaps isoform P01116-2 G12C): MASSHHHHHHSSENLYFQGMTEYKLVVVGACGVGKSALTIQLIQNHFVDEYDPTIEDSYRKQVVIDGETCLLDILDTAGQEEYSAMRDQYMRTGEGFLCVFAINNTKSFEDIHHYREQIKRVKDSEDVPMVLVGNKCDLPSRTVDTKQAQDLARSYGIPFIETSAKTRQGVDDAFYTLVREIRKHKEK
PROTOCOL_DETAILS: Inhibitory activity on interaction between KRAS G12C and cRAF (Alpha technology)
MEASUREMENT_PARAMETERS: GMPPNP-bound KRAS G12C incubated with compound 25° C. 1 hour; Table 2; read-out: IC50
Each record is given yes if its reported IC50 is strictly below 90 nM. Records at or above 90 nM are given no.

COMPOUND	GROUP_LABEL
CO[C@H]1CC[C@H](NC/C=C/C(=O)Nc2c(F)cc(C(=O)c3cc4c5c(cccn35)-c3c(C(F)(F)F)cc5c(nc(C)n5C)c3OCC4)cc2F)CC1 (single isomer, unassigned) [Example 30-1]	yes
CO[C@H]1CC[C@H](NC/C=C/C(=O)Nc2c(F)cc(C(=O)c3cc4c5c(cccn35)-c3c(C(F)(F)F)cc5c(nc(C)n5C)c3OCC4)cc2F)CC1 (single isomer, unassigned) [Example 30-2]	no
Cc1nc2c3c(c(C(F)(F)F)cc2n1C)-c1cccn2c(C(=O)c4cc(F)c(NC(=O)/C=C/CNC5(CF)COC5)c(F)c4)cc(c12)CCO3	no
Cc1nc2c3c(c(C(F)(F)F)cc2n1C)-c1cccn2c(C(=O)c4cc(F)c(NC(=O)/C=C/CNC5(C)COC5)c(F)c4)cc(c12)CCO3 (single isomer, unassigned) [Example 31-2]	no
C=C1Cc2cc(C(=O)c3cc(F)c(NC(=O)/C=C/CN[C@H]4CC[C@H](OC)CC4)c(F)c3)n3cccc(c23)-c2c(C)cc3c(nc(C)n3C)c21	no
Cc1nc2c3c(c(C(F)(F)F)cc2n1C)-c1cccn2c(C(=O)c4cc(F)c(NC(=O)/C=C/CN(C)C)c(F)c4)cc(c12)CCO3 (single isomer, unassigned) [Example 38-2]	yes
Cc1nc2c3c(c(C(F)(F)F)cc2n1C)-c1cccn2c(C(=O)c4cc(F)c(NC(=O)/C=C/CNC(C)(C)C)c(F)c4)cc(c12)CCO3	yes
Cc1nc2c3c(c(C(F)(F)F)cc2n1C)-c1cccn2c(C(=O)c4cc(F)c(NC(=O)/C=C/CNC5CCOCC5)c(F)c4)cc(c12)CCO3	yes
Cc1nc2c3c(c(C(F)(F)F)cc2n1C)-c1cccn2c(C(=O)c4cc(F)c(NC(=O)/C=C/CNC5(C(=O)O)CCCCC5)c(F)c4)cc(c12)CCO3	no
Cc1nc2c3c(c(C(F)(F)F)cc2n1C)-c1cccn2c(C(=O)c4cc(F)c(NC(=O)/C=C/CNC5CCP(C)(=O)CC5)c(F)c4)cc(c12)CCO3 (centres unmarked)	yes
CO[C@H]1CC[C@H](NC/C=C/C(=O)Nc2c(F)cc(C(=O)c3cc4c5c(cccn35)-c3c(C(F)(F)F)cc5c(nc(C)n5C)c3OC(C)C4)cc2F)CC1 (single isomer, unassigned) [Example 42-2]	no

###

Tested on: MIA PaCa-2 cells
PROTOCOL_DETAILS: Growth inhibition activity on KRAS-G12C mutant cell line (CellTiter-Glo 3D)
Assay type: cell-based, human
MEASUREMENT_PARAMETERS: Homo sapiens, MIA PaCa-2, 72 h, MIA PaCa-2, 3-day culture with compound; Table 3-1
RECORDED_ENDPOINT: IC50 (nM)

COMPOUND	VALUE_REPORTED
COCc1nc2c3c(c(OC)cc2n1C)-c1cccn2c(C(=O)c4cc(F)c(NC(=O)/C=C/CNC5(C)COC5)c(F)c4)cc(c12)CCN3C (single isomer, unassigned)	47.7
Cc1cc2c(nc(C)n2C)c2c1-c1cccc3c(C(=O)c4cc(F)c(NC(=O)/C=C/CNC5(C)COC5)c(F)c4)cn(c13)CCN2C (single isomer, unassigned)	95.1
CC(=O)NC[C@@H]1CCN1C/C=C/C(=O)Nc1c(F)cc(C(=O)c2cc3c4c(cccn24)-c2c(C(F)(F)F)cc4c(ncn4C)c2OCC3)cc1F	24.3
Cn1cnc2c3c(c(C(F)(F)F)cc21)-c1cccn2c(C(=O)c4cc(F)c(NC(=O)/C=C/CN[C@H]5[C@@H]6COC[C@@H]65)c(F)c4)cc(c12)CCO3	15.3
Cc1nc2c3c(c(C(F)(F)F)cc2n1C)-c1cccn2c(C(=O)c4cc(F)c(NC(=O)/C=C/CNC5COC5)c(F)c4)cc(c12)CCO3	15.9

###

Tested on: MIA PaCa-2 cells
PROTOCOL_DETAILS: Growth inhibition activity on KRAS-G12C mutant cell line (CellTiter-Glo 3D)
Assay type: cell-based, human
MEASUREMENT_PARAMETERS: Homo sapiens, MIA PaCa-2, 72 h, MIA PaCa-2, 3-day culture with compound; Table 3-1
pIC50: −log10 of the molar value.
The following compounds are shown together with reported pIC50 values.

COMPOUND	pIC50
CCN1CCn2cc(C(=O)c3cc(F)c(NC(=O)/C=C/CN[C@H]4CC[C@H](OC)CC4)c(F)c3)c3cccc(c32)-c2c(C)cc3c(nc(C)n3C)c21 [Example 66]	7.52
CO[C@H]1CC[C@H](NC/C=C/C(=O)Nc2c(F)cc(C(=O)c3cn4c5c(cccc35)-c3c(C)cc5c(nc(C)n5C)c3N(C(C)=O)CC4)cc2F)CC1 [Example 72]	5.93
Cc1nc2c3c(c(C(F)(F)F)cc2n1C)-c1cccn2c(C(=O)c4ccc(NC(=O)/C=C/CNC5(C)COC5)cn4)cc(c12)CCO3 [Example 60]	7.49

###

Tested on: MIA PaCa-2 cells
PROTOCOL_DETAILS: Growth inhibition activity on KRAS-G12C mutant cell line (CellTiter-Glo 3D)
Type: cell-based, human
MEASUREMENT_PARAMETERS: Homo sapiens, MIA PaCa-2, 72 h, MIA PaCa-2, 3-day culture with compound; Table 3-1
pIC50: −log10 of the molar value.

MOLECULE	MEASURED_TARGET	pIC50
CO[C@H]1CC[C@H](NC/C=C/C(=O)Nc2ccc(C(=O)c3cc4c5c(cccn35)-c3c(C(F)(F)F)cc5c(nc(C)n5C)c3OCC4)cc2F)CC1	MIA PaCa-2 cells	8.09
COc1cc(N2CCCC2=O)cc2c1-c1cccn3c(C(=O)c4cc(F)c(NC(=O)/C=C/CN[C@H]5CCOC5)c(F)c4)cc(c13)CCN2C	MIA PaCa-2 cells	6.78
Cc1nnc2c3c(c(C(F)(F)F)cn12)-c1cccn2c(C(=O)c4cc(F)c(NC(=O)/C=C/CNC5(C)COC5)c(F)c4)cc(c12)CCN3C (single isomer, unassigned)	MIA PaCa-2 cells	7.63
COc1cc2c(nc(C)n2C)c2c1-c1cccn3c(C(=O)c4cc(F)c(NC(=O)/C=C/CN[C@H]5CCOC5)c(F)c4)cc(c13)CCN2C (single isomer, unassigned)	MIA PaCa-2 cells	8.15
CN1CCc2cc(C(=O)c3cc(F)c(NC(=O)/C=C/CN[C@H]4CCOC4)c(F)c3)n3cccc(c23)-c2c(C(F)(F)F)cc3c(ncn3C3CC3)c21	MIA PaCa-2 cells	7.29

###

MEASURED_TARGET: interaction between GMPPNP-bound recombinant K-Ras4B G12C mutant protein and cRAF RAS-binding domain (cRAF-RBD) (Homo sapiens, UniProt P01116, G12C)
Construct: His-tag (N)
PROTOCOL_DETAILS: Inhibitory activity on interaction between KRAS G12C and cRAF (Alpha technology)
MEASUREMENT_PARAMETERS: GMPPNP-bound KRAS G12C incubated with compound 25° C. 1 hour; Table 2-1; read-out: IC50
The following molecules are shown together with reported log10 of IC50 values.
RECORDED_ENDPOINT: log10 of IC50 (log10 of the value in nM)

MOLECULE	log10 of IC50
Cc1nc2c3c(c(C(F)(F)F)cc2n1C)-c1cccn2c(C(=O)c4cc(F)c(NC(=O)/C=C/CNC(C)(C)CF)c(F)c4)cc(c12)CCO3	1.09
Cn1cnc2c3c(c(C(F)(F)F)cc21)-c1cccn2c(C(=O)c4cc(F)c(NC(=O)/C=C/CN5C6CCC5COC6)c(F)c4)cc(c12)CCO3	1.07
Cn1cnc2c3c(c(C(F)(F)F)cc21)-c1cccn2c(C(=O)c4cc(F)c(NC(=O)/C=C/CN5CCCC5)c(F)c4)cc(c12)CCO3	1.37
CN1CCc2nc(C(=O)c3cc(F)c(NC(=O)/C=C/CN[C@H]4CCOC4)c(F)c3)n3cccc(c23)-c2c(C(F)(F)F)cc3c(ncn3C)c21 (single isomer, unassigned)	1.45
CO[C@H]1CC[C@H](NC/C=C/C(=O)Nc2c(F)cc(C(=O)c3cc4c5c(cccn35)-c3c(C(F)(F)F)cc5c(nc(C)n5C)c3N(C)CC4)cc2F)CC1 (single isomer, unassigned)	1.15
COc1cc2c(nc(C)n2C)c2c1-c1cccn3c(C(=O)c4cc(F)c(NC(=O)/C=C/CNC5(C)COC5)c(F)c4)cc(c13)CCN2C (single isomer, unassigned)	0.99
CN1CCc2cc(C(=O)c3cc(F)c(NC(=O)/C=C/CNC4(C)COC4)c(F)c3)n3cccc(c23)-c2c(C(F)(F)F)cc3c(ncn3C3CC3)c21 (single isomer, unassigned)	1.50
COc1cc2c(nc(C)n2C)c2c1-c1cccn3c(C(=O)c4cc(F)c(NC(=O)/C=C/CNC5(C)CC5)c(F)c4)cc(c13)CCN2C (single isomer, unassigned)	0.62
COCCn1cnc2c3c(c(C(F)(F)F)cc21)-c1cccn2c(C(=O)c4cc(F)c(NC(=O)C=CCNC5(C)CC5)c(F)c4)cc(c12)CCN3C	1.26
Cc1c2cc(C(F)(F)F)c3c(c2nn1C)N(C)CCc1cc(C(=O)c2cc(F)c(NC(=O)/C=C/CNC4(C)CC4)c(F)c2)n2cccc-3c12 (single isomer, unassigned)	0.95
CN1CCc2cc(C(=O)c3cc(F)c(NC(=O)/C=C/CN[C@@H]4CCOC4)c(F)c3)n3cccc(c23)-c2c(C(F)(F)F)cc3c(ncn3C)c21 (single isomer, unassigned)	1.20
Cn1cnc2c3c(c(C(F)(F)F)cc21)-c1cccn2c(C(=O)c4cc(F)c(NC(=O)/C=C/CNC5(C)COC5)c(F)c4)cc(c12)CCO3 (single isomer, unassigned)	1.20
COc1cc2c(nc(C)n2C)c2c1-c1cccn3c(C(=O)c4cc(F)c(NC(=O)/C=C/CNC5(C)CC5)c(F)c4)cc(c13)CCS2	1.00
COCc1nc2c3c(c(C(F)(F)F)cc2n1C)-c1cccn2c(C(=O)c4cc(F)c(NC(=O)/C=C/CN[C@H]5CCOC5)c(F)c4)cc(c12)CCN3C (single isomer, unassigned)	1.05
CN1CCc2cc(C(=O)c3cc(F)c(NC(=O)/C=C/CN4[C@@H]5CC[C@H]4[C@H](O)C5)c(F)c3)n3cccc(c23)-c2c(C(F)(F)F)cc3c(ncn3C)c21 (single isomer, unassigned) [Example 207]	1.43
Cc1nnc2c3c(c(C(F)(F)F)cn12)-c1cccn2c(C(=O)c4cc(F)c(NC(=O)/C=C/CNC5(C)COC5)c(F)c4)cc(c12)CCN3C (single isomer, unassigned)	1.76
Cn1cnc2c3c(c(C(F)(F)F)cc21)-c1cccn2c(C(=O)c4cc(F)c(NC(=O)/C=C/CN5CC[C@H](O)C5)c(F)c4)cc(c12)CCO3	1.23
COCCn1c(C)nc2c3c(c(OC)cc21)-c1cccn2c(C(=O)c4cc(F)c(NC(=O)/C=C/CNC5(C)CC5)c(F)c4)cc(c12)CC[S+]3[O-] (stereo not drawn)	1.49
CO[C@H]1CC[C@H](NC/C=C/C(=O)Nc2ccc(C(=O)c3cc4c5c(cccn35)-c3c(C(F)(F)F)cc5c(nc(C)n5C)c3OCC4)cc2F)CC1	1.34
COCc1nc2c3c(c(C(F)(F)F)cc2n1C)-c1cccn2c(C(=O)c4cc(F)c(NC(=O)/C=C/CN[C@H]5CCOC5)c(F)c4)nc(c12)CCN3C (single isomer, unassigned)	1.68
COC[C@@H]1CCN1C/C=C/C(=O)Nc1c(F)cc(C(=O)c2cc3c4c(cccn24)-c2c(C(F)(F)F)cc4c(ncn4C)c2OCC3)cc1F	1.78
